molecular target: T1, Axin Lip-LIRα (UniProt O15169 345-361); assay: ITC; phosphorylated 43PPP
T1 chain: PYRIRKQHRREMQESVQ
pKd: −log10 of the molar value. Non-standard residues stand in square brackets, D forms with d. No end group written: not given here. pS = N[C@@H](COP(=O)(O)O)C(=O)O

# binder, pKd
rows = [
    ("AGYALAPAT[pS]AND[pS]EQQ[pS]LSSDADTLSLTDSSVDGIPPYRIRKQ [phosphorylated Axin LIRup peptide (43PPP, Axin_(308-351) including pS317, pS321, pS325)]", 4.32),
]
